- Tested on: HCC461 cells
- experiment: Cell viability assay in HCC461 cells (WST-1)
- Type: cell-based
- settings: HCC461, 48 h, 48 hrs incubation; Table 1 experiment
quantity: IC50 (µM)

Sample answers from the record:
Quick one: IC50 for CN[C@@H](C)C(=O)NC(C(=O)C1C[C@@H](NC(=O)c2cccc(C(=O)N[C@H]3CC(C(=O)N[C@@H]4CCCc5ccccc54)N(C(=O)[C@@H](NC(=O)[C@H](C)NC)C(C)(C)C)C3)c2)CC1C(=O)N[C@@H]1CCCc2ccccc21)C(C)(C)C.Cl.Cl (some centres unmarked) ?
0.007

Item under review: C#CC[C@H](NC(=O)[C@H](C)NC)C(=O)N1C[C@@H](NC(=O)c2cccc(C(=O)N[C@H]3C[C@@H](C(=O)N[C@@H]4CCCc5ccccc54)N(C(=O)[C@H](CC#C)NC(=O)[C@H](C)NC)C3)n2)C[C@H]1C(=O)N[C@@H]1CCCc2ccccc21 . Reported IC50?
0.222

Sample CN[C@@H](C)C(=O)N[C@@H](CC#CC#CC[C@H](NC(=O)[C@H](C)NC)C(=O)N1CCC[C@H]1C(=O)N[C@@H]1CCCc2ccccc21)C(=O)N1CCC[C@H]1C(=O)N[C@@H]1CCCc2ccccc21.Cl.Cl [Ref cpd, reference compound] — what was its IC50?
0.082

a. CN[C@@H](C)C(=O)N[C@H](C(=O)N1C[C@@H](NC(=O)c2cc(O)cc(C(=O)N[C@H]3C[C@@H](C(=O)N[C@@H]4CCCc5ccccc54)N(C(=O)[C@@H](NC(=O)[C@H](C)NC)C(C)(C)C)C3)c2)C[C@H]1C(=O)N[C@@H]1CCCc2ccccc21)C(C)(C)C.Cl.Cl
b. CN[C@@H](C)C(=O)N[C@H](C(=O)N1C[C@@H](NC(=O)c2ccc(C(=O)N[C@H]3C[C@@H](C(=O)N[C@@H]4CCCc5ccccc54)N(C(=O)[C@@H](NC(=O)[C@H](C)NC)C(C)(C)C)C3)s2)C[C@H]1C(=O)N[C@@H]1CCCc2ccccc21)C(C)(C)C.Cl.Cl
c. CN[C@@H](C)C(=O)N[C@H](C(=O)N1C[C@@H](NC(=O)CN(C)CC(=O)N[C@H]2C[C@@H](C(=O)N[C@@H]3CCCc4ccccc43)N(C(=O)[C@@H](NC(=O)[C@H](C)NC)C(C)(C)C)C2)C[C@H]1C(=O)N[C@@H]1CCCc2ccccc21)C(C)(C)C.Cl.Cl.Cl
d. C#CC[C@H](NC(=O)[C@H](C)NC)C(=O)N1C[C@@H](NC(=O)[C@H](O)[C@@H](O)C(=O)N[C@H]2C[C@@H](C(=O)N[C@@H]3CCCc4ccccc43)N(C(=O)[C@H](CC#C)NC(=O)[C@H](C)NC)C2)C[C@H]1C(=O)N[C@@H]1CCCc2ccccc21
e. CN[C@@H](C)C(=O)N[C@H](C(=O)N1C[C@@H](NC(=O)c2cc(C(=O)N[C@H]3C[C@@H](C(=O)N[C@@H]4CCCc5ccccc54)N(C(=O)[C@@H](NC(=O)[C@H](C)NC)C(C)(C)C)C3)[nH]n2)C[C@H]1C(=O)N[C@@H]1CCCc2ccccc21)C(C)(C)C.Cl.Cl
Put the entries in order of IC50, starting with the largest number. Write out the labels following the order that was asked for.
d, c, a, e, b
